Entries annotated with measured pKd
# assayed_target: SCRIB_3, Q14160
# Sequence (Q14160 999-1103): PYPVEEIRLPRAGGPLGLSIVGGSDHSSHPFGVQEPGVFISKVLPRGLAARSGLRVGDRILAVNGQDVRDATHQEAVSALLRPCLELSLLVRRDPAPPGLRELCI
# procedure_summary: holdup assay
# Design: key: below the threshold = too weak to quantify, mostly under pKd 3.1 to 4
# condition_parameters: plain residues with an end cap or a label only (N-terminal biotin on a linker: ahx)
experimental_readout: pKd

> print(dat)
                        binder  result
1  HTHSYIETHV [CNKSR2, Q8WXI2]    5.11
2   QDEKVKESYV [ABCA1, O95477]    4.45
3    QPRTWLQSPV [RTKN, Q9BST9]    3.67
4  TQKFRASTAL [FRMPD1, Q5SYB0]    4.59
